We begin with a simple list: items and their reported Inhibition of C3a generation, 20% human serum.
- experimental target: Human Factor P (human, UniProt P27918 29-469)
- Sequence (P27918 29-469 limits assumed): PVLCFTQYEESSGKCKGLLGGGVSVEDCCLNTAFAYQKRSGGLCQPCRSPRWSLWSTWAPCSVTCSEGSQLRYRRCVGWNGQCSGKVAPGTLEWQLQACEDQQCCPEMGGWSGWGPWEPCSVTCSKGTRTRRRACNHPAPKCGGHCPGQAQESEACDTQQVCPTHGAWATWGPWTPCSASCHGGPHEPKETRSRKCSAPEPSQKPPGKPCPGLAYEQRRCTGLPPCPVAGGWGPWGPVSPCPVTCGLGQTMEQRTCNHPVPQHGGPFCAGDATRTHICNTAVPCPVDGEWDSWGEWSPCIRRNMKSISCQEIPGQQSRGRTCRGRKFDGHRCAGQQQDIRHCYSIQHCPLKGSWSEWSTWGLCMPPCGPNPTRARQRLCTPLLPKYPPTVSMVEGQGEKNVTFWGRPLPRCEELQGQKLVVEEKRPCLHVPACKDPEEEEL
- test: cell-based or functional assay
Kindly answer with a numeric value in nM, unit omitted.

Guide cases for Inhibition of C3a generation, 20% human serum, answers given:
Recorded result, NVS964 (Fab, V domains shown, Disulfide-bridged Fab; also called Fab NVS964) VH: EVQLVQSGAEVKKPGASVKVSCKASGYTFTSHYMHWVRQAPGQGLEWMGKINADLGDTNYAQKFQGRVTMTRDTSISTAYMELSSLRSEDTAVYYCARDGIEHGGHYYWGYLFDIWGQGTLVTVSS VL: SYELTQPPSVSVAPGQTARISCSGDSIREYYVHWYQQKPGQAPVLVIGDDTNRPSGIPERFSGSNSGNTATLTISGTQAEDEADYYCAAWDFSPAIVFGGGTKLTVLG , Inhibition of C3a generation, 20% human serum: 42.2

Documented Inhibition of C3a generation, 20% human serum of NVS963 (Fab, V domains shown, Disulfide-bridged Fab; also called Fab NVS963) VH: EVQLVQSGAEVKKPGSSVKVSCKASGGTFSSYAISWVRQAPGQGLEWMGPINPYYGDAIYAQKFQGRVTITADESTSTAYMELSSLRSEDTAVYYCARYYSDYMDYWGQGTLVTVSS VL: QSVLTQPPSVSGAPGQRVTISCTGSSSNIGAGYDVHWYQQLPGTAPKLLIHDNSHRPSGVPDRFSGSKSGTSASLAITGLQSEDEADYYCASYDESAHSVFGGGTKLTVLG : 65.1

For the next question, use this binder.
Data point: NVS962 (Fab, V domains shown, also called Fab NVS962) VH: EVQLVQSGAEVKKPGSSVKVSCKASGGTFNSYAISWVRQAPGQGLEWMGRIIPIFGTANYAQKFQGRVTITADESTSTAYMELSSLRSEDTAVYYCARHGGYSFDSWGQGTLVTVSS VL: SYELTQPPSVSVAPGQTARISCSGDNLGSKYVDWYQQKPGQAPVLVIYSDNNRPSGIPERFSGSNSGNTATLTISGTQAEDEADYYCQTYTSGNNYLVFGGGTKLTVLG ; Inhibition of C3a generation, 20% human serum = 78.4
